Consider the following compounds; for each one, report its selectivity ratio.
test: Selectivity index, ratio of CC50 for cytotoxicity against mouse RAW264.7 cells to IC50 for antitrypanosomal activity against Trypanosoma cruzi Y strain trypomastigotes transfected in African green monkey Vero cells assessed as inhibition of parasite growth; type: toxicity, cell-based; settings: read-out: Ratio CC50/IC50

Quick one: selectivity ratio of "C/C(=N\Nc1nc(-c2ccc3ccccc3c2)cs1)c1ccc(Cl)c(Cl)c1Cl" ?
1.45

And then "C/C(=N\Nc1nc(-c2ccc(F)cc2)cs1)c1ccc(Cl)c(Cl)c1Cl" , what is it?
1.96

And then "C/C(=N\Nc1nc(-c2ccc(Cl)cc2)cs1)c1ccc(Cl)cc1Cl" , what is it?
3.07

And then "C/C(=N\Nc1nc(-c2ccc(Cl)cc2)cs1)c1ccc(Cl)c(Cl)c1Cl" , what is it?
12.1

And then "C/C(=N\Nc1nc(-c2ccc(-c3ccccc3)cc2)cs1)c1ccc(Cl)cc1Cl" , what is it?
7.58

And then "C/C(=N\Nc1nc(-c2ccc(Cl)cc2Cl)cs1)c1ccc(Cl)c(Cl)c1Cl" , what is it?
8.89

And then "C/C(=N\Nc1nc(-c2ccccc2)cs1)c1ccc(Cl)cc1Cl" , what is it?
0.93

And then "COc1ccc(-c2csc(N/N=C(\C)c3ccc(Cl)c(Cl)c3Cl)n2)cc1" , what is it?
0.87

And then "C/C(=N\Nc1nc(-c2ccccc2)cs1)c1ccc(Cl)c(Cl)c1Cl" , what is it?
2.61

* * *

experiment: Selectivity index, ratio of CC50 for cytotoxicity against mouse RAW264.7 cells to IC50 for antitrypanosomal activity against Trypanosoma cruzi Dm28 epimastigotes assessed as inhibition of parasite growth; format: toxicity, cell-based; conditions: read-out: Ratio CC50/IC50
property.label: selectivity ratio
The answer should be written as a number, with no unit following it.

Quick one: selectivity ratio of "C/C(=N\Nc1nc(-c2ccc([N+](=O)[O-])cc2)cs1)c1ccc(Cl)c(Cl)c1Cl" ?
3.05

And then O=C(Cn1ccnc1[N+](=O)[O-])NCc1ccccc1 [BENZNIDAZOLE] , what is it?
0.77

And then "C/C(=N\Nc1nc(-c2ccc(Cl)cc2)cs1)c1ccc(Cl)c(Cl)c1Cl" , what is it?
3.73

And then "C/C(=N\Nc1nc(-c2ccc3ccccc3c2)cs1)c1ccc(Cl)c(Cl)c1Cl" , what is it?
8.86

And then "C/C(=N\Nc1nc(-c2ccc(Cl)cc2)cs1)c1ccc(Cl)cc1Cl" , what is it?
7.3

And then "C/C(=N\Nc1nc(-c2ccccc2)cs1)c1ccc(Cl)c(Cl)c1Cl" , what is it?
2.18

And then "C/C(=N\Nc1nc(-c2ccc(-c3ccccc3)cc2)cs1)c1ccc(Cl)c(Cl)c1Cl" , what is it?
7.22

And then "C/C(=N\Nc1nc(-c2ccc(Br)cc2)cs1)c1ccc(Cl)c(Cl)c1Cl" , what is it?
5.68

And then "C/C(=N\Nc1nc(-c2ccc(F)cc2)cs1)c1ccc(Cl)c(Cl)c1Cl" , what is it?
2.17

And then "C/C(=N\Nc1nc(-c2ccc(Cl)cc2Cl)cs1)c1ccc(Cl)c(Cl)c1Cl" , what is it?
4.35

And then "C/C(=N\Nc1nc(-c2ccc(-c3ccccc3)cc2)cs1)c1ccc(Cl)cc1Cl" , what is it?
3.96

And then "COc1ccc(-c2csc(N/N=C(\C)c3ccc(Cl)cc3Cl)n2)cc1" , what is it?
12.4

And then "C/C(=N\Nc1nc(-c2cccc([N+](=O)[O-])c2)cs1)c1ccc(Cl)c(Cl)c1Cl" , what is it?
3.47

And then "C/C(=N\Nc1nc(-c2ccc(Cl)c(Cl)c2)cs1)c1ccc(Cl)c(Cl)c1Cl" , what is it?
1.39

And then "C/C(=N\Nc1nc(-c2ccc(Cl)c(Cl)c2)cs1)c1ccc(Cl)cc1Cl" , what is it?
15.2

And then "COc1ccc(-c2csc(N/N=C(\C)c3ccc(Cl)c(Cl)c3Cl)n2)cc1" , what is it?
3.43

And then "C/C(=N\Nc1nc(-c2ccccc2)cs1)c1ccc(Cl)cc1Cl" , what is it?
5.76

* * *

Consider the following compounds; for each one, report its CC50 at 72 h.
assay: Cytotoxicity against mouse RAW264.7 cells assessed as inhibition of cell growth incubated for 72 hrs by MTT assay; assay type: toxicity, cell-based
State the value with its unit after it.

Quick one: CC50 at 72 h of "O=C(Cn1ccnc1[N+](=O)[O-])NCc1ccccc1" ?
44.2 µM

And then "C/C(=N\Nc1nc(-c2ccc(Cl)cc2)cs1)c1ccc(Cl)c(Cl)c1Cl" , what is it?
39.6 µM

And then "C/C(=N\Nc1nc(-c2ccc(Cl)c(Cl)c2)cs1)c1ccc(Cl)c(Cl)c1Cl" , what is it?
44.9 µM

And then "C/C(=N\Nc1nc(-c2ccc(-c3ccccc3)cc2)cs1)c1ccc(Cl)cc1Cl" , what is it?
80.1 µM

And then "C/C(=N\Nc1nc(-c2ccc(-c3ccccc3)cc2)cs1)c1ccc(Cl)c(Cl)c1Cl" , what is it?
62.2 µM

And then "C/C(=N\Nc1nc(-c2ccc(Cl)c(Cl)c2)cs1)c1ccc(Cl)cc1Cl" , what is it?
97.3 µM

And then "C/C(=N\Nc1nc(-c2ccc(Cl)cc2)cs1)c1ccc(Cl)cc1Cl" , what is it?
55.1 µM

* * *

experiment: Selectivity index, ratio of CC50 for cytotoxicity against mouse RAW264.7 cells to IC50 for antitrypanosomal activity against Trypanosoma cruzi Y strain trypomastigotes transfected in African green monkey Vero cells assessed as inhibition of parasite growth; assay type: toxicity, cell-based; settings: read-out: Ratio CC50/IC50
Consider the following compounds; for each one, report its selectivity ratio.
The answer should be written as a number, with no unit following it.

Quick one: selectivity ratio of "O=C(Cn1ccnc1[N+](=O)[O-])NCc1ccccc1" ?
1.07

And then "C/C(=N\Nc1nc(-c2ccc(Cl)c(Cl)c2)cs1)c1ccc(Cl)cc1Cl" , what is it?
20.2

And then "C/C(=N\Nc1nc(-c2ccc(Cl)c(Cl)c2)cs1)c1ccc(Cl)c(Cl)c1Cl" , what is it?
1.76

And then "C/C(=N\Nc1nc(-c2ccc(-c3ccccc3)cc2)cs1)c1ccc(Cl)c(Cl)c1Cl" , what is it?
23.6

And then "COc1ccc(-c2csc(N/N=C(\C)c3ccc(Cl)cc3Cl)n2)cc1" , what is it?
0.95

* * *

assay: Cytotoxicity against mouse RAW264.7 cells assessed as inhibition of cell growth incubated for 72 hrs by MTT assay; format: toxicity, cell-based
Threshold 40 µM: CC50 at 72 h strictly smaller gives 1 (yes), otherwise 0 (no).

# strict comparison: is reported CC50 at 72 h < 40 µM? input = "COc1ccc(-c2csc(N/N=C(\C)c3ccc(Cl)cc3Cl)n2)cc1"
0 (no)

And then "C/C(=N\Nc1nc(-c2ccccc2)cs1)c1ccc(Cl)c(Cl)c1Cl" , what is it?
1 (yes)

And then "C/C(=N\Nc1nc(-c2ccc(Br)cc2)cs1)c1ccc(Cl)c(Cl)c1Cl" , what is it?
1 (yes)

And then "C/C(=N\Nc1nc(-c2ccc3ccccc3c2)cs1)c1ccc(Cl)c(Cl)c1Cl" , what is it?
0 (no)

And then "COc1ccc(-c2csc(N/N=C(\C)c3ccc(Cl)c(Cl)c3Cl)n2)cc1" , what is it?
1 (yes)

And then "C/C(=N\Nc1nc(-c2ccc(F)cc2)cs1)c1ccc(Cl)c(Cl)c1Cl" , what is it?
0 (no)

And then "C/C(=N\Nc1nc(-c2cccc([N+](=O)[O-])c2)cs1)c1ccc(Cl)c(Cl)c1Cl" , what is it?
1 (yes)

And then "C/C(=N\Nc1nc(-c2ccc([N+](=O)[O-])cc2)cs1)c1ccc(Cl)c(Cl)c1Cl" , what is it?
0 (no)

And then "C/C(=N\Nc1nc(-c2ccc(Cl)cc2Cl)cs1)c1ccc(Cl)c(Cl)c1Cl" , what is it?
1 (yes)

And then "C/C(=N\Nc1nc(-c2ccccc2)cs1)c1ccc(Cl)cc1Cl" , what is it?
0 (no)

* * *

experiment: Selectivity index, ratio of CC50 for cytotoxicity against mouse RAW264.7 cells to IC50 for antitrypanosomal activity against Trypanosoma cruzi Tulahuen amastigotes transfected in L929 cells assessed as inhibition of parasite growth; assay type: toxicity, cell-based; conditions: read-out: Ratio CC50/IC50
property.label: selectivity ratio

Quick one: selectivity ratio of "C/C(=N\Nc1nc(-c2cccc([N+](=O)[O-])c2)cs1)c1ccc(Cl)c(Cl)c1Cl" ?
6.55

And then O=C(Cn1ccnc1[N+](=O)[O-])NCc1ccccc1 [BENZNIDAZOLE] , what is it?
7.83

And then "COc1ccc(-c2csc(N/N=C(\C)c3ccc(Cl)c(Cl)c3Cl)n2)cc1" , what is it?
3.45

And then "C/C(=N\Nc1nc(-c2ccc([N+](=O)[O-])cc2)cs1)c1ccc(Cl)c(Cl)c1Cl" , what is it?
1.95

And then "C/C(=N\Nc1nc(-c2ccc(Cl)c(Cl)c2)cs1)c1ccc(Cl)c(Cl)c1Cl" , what is it?
1.76

And then "C/C(=N\Nc1nc(-c2ccccc2)cs1)c1ccc(Cl)cc1Cl" , what is it?
2

And then "C/C(=N\Nc1nc(-c2ccc(Cl)cc2Cl)cs1)c1ccc(Cl)c(Cl)c1Cl" , what is it?
2.67

And then "C/C(=N\Nc1nc(-c2ccc(Cl)cc2)cs1)c1ccc(Cl)c(Cl)c1Cl" , what is it?
4.55

And then "C/C(=N\Nc1nc(-c2ccc(-c3ccccc3)cc2)cs1)c1ccc(Cl)cc1Cl" , what is it?
5.38

And then "C/C(=N\Nc1nc(-c2ccc(F)cc2)cs1)c1ccc(Cl)c(Cl)c1Cl" , what is it?
1.51

And then "C/C(=N\Nc1nc(-c2ccccc2)cs1)c1ccc(Cl)c(Cl)c1Cl" , what is it?
1.46

And then "C/C(=N\Nc1nc(-c2ccc(Cl)c(Cl)c2)cs1)c1ccc(Cl)cc1Cl" , what is it?
3.44

And then "C/C(=N\Nc1nc(-c2ccc(Br)cc2)cs1)c1ccc(Cl)c(Cl)c1Cl" , what is it?
5

And then "C/C(=N\Nc1nc(-c2ccc(Cl)cc2)cs1)c1ccc(Cl)cc1Cl" , what is it?
5.21

And then "COc1ccc(-c2csc(N/N=C(\C)c3ccc(Cl)cc3Cl)n2)cc1" , what is it?
11.8

And then "C/C(=N\Nc1nc(-c2ccc3ccccc3c2)cs1)c1ccc(Cl)c(Cl)c1Cl" , what is it?
3.79

And then "C/C(=N\Nc1nc(-c2ccc(-c3ccccc3)cc2)cs1)c1ccc(Cl)c(Cl)c1Cl" , what is it?
4.83
